- PROTOCOL_DETAILS: Caco-2 cell permeability assay (Transwell, ab and ba direction)
- Format: in vitro ADME, human
- PROTOCOL_CONDITIONS: human, Caco-2, DS2; read-out: efflux ratio (Papp,ba/Papp,ab)
EXPERIMENTAL_READOUT: efflux ratio at 120 min, 10 μg/ml

structure_notation=C/C=C/C=C\CC/C=C/C(=O)NCC(C)C experimental_readout="efflux ratio at 120 min, 10 μg/ml" observed_result=0.93

---

- PROTOCOL_DETAILS: Capillary depletion (distribution brain parenchyma versus capillaries)
- Format: in vivo, ICR-CD-1 mice
- PROTOCOL_CONDITIONS: female, ICR-CD-1, mouse, brain capillaries/serum, iv, 80 μg per mouse; mice, 10 min after i.v. injection; read-out: spilanthol in brain capillaries (brain/serum ratio)
EXPERIMENTAL_READOUT: Kp at 10 min

structure_notation=C/C=C/C=C\CC/C=C/C(=O)NCC(C)C observed_result=0.0024

---

- PROTOCOL_DETAILS: Caco-2 cell permeability assay (Transwell, ab and ba direction)
- Format: in vitro ADME, human
- PROTOCOL_CONDITIONS: human, Caco-2; donor plus acceptor at last time point (120 min); read-out: mass balance, total recovery
EXPERIMENTAL_READOUT: recovery at 120 min, 10 μg/ml

structure_notation=C/C=C/C=C\CC/C=C/C(=O)NCC(C)C observed_result="105 to 121%"

---

- PROTOCOL_DETAILS: Serum elimination kinetics in the mice MTR model after intravenous injection
- Type: in vivo, ICR-CD-1 mice
- PROTOCOL_CONDITIONS: female, ICR-CD-1, iv, 80 μg per mouse; mouse serum, i.v., one compartmental model; read-out: elimination rate constant (converted)
EXPERIMENTAL_READOUT: k el (s⁻¹)

structure_notation=C/C=C/C=C\CC/C=C/C(=O)NCC(C)C observed_result=0.00367

---

- PROTOCOL_DETAILS: Pharmacokinetic oral gavage experiment in rats (serum spilanthol, one compartmental model)
- Type: in vivo, Wistar rats
- PROTOCOL_CONDITIONS: both sexes, Wistar, rat, serum, po, 1.5 ml of 0.73 mg spilanthol/g dose solution, oral gavage, ln(2)/ke, read-out: elimination half-life (converted)
EXPERIMENTAL_READOUT: half-life (h)

structure_notation=C/C=C/C=C\CC/C=C/C(=O)NCC(C)C experimental_readout=half-life observed_result=1.13
